Hello, the source for this data is ChEMBL document CHEMBL1140844, in case you need it.

# Study Target: D(2) dopamine receptor (Homo sapiens, UniProt P14416)
# Sequence (P14416 whole entry): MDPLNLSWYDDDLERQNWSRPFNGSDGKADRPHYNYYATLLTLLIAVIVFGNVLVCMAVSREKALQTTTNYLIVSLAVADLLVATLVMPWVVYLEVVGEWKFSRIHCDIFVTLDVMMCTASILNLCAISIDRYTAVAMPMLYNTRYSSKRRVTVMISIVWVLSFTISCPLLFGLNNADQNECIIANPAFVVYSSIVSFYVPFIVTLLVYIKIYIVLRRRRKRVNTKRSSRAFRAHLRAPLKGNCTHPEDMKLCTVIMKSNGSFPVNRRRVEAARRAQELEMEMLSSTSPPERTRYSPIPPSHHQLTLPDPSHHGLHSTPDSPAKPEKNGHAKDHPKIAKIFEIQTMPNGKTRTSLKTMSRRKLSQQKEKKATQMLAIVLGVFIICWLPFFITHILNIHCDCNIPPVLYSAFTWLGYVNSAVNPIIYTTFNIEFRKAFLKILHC
# Experiment Description: Displacement of [3H]spiroperidol from human cloned dopaminergic D2 receptor expressed in rat C6 cells at 10 uM
# Format: cell-based
Quick list: inhibition per entry.
# number only, unit % dropped from output

Below, each entry is followed by its recorded inhibition result.
- COc1cccc(CCc2ccccc2OCCN2CCc3cc(OC)c(OC)cc3C2)c1: 12
- COc1cccc(CCc2ccccc2OCCN2CCN(c3cccc(Cl)c3)CC2)c1: 43
- COc1cccc(CCc2ccccc2OCCCCN2CCc3ccccc3C2)c1: 48
- COc1cccc(CCc2ccccc2OCCN2CCN(c3cccc(C(F)(F)F)c3)CC2)c1: 31
- COc1cccc(CCc2ccccc2OCCCCN2CCc3cc(OC)c(OC)cc3C2)c1: 40
- COc1cccc(CCc2ccccc2OCCCCN2CCN(c3cccc(Cl)c3)CC2)c1: 35
- COc1cccc(CCc2ccccc2OCCCCCN2CCN(C)CC2)c1: 26
- COc1cccc(CCc2ccccc2OCCCCCN2CCc3ccccc3C2)c1: 16
- COc1cccc(CCc2ccccc2OCCCN2CCc3cc(OC)c(OC)cc3C2)c1: 35

Entry "COc1cccc(CCc2ccccc2OCCCCCN2CCN(c3cccc(Cl)c3)CC2)c1" : reported inhibition = ? 25

###

# Study Target: ATP-dependent translocase ABCB1 (Homo sapiens, UniProt P08183)
# Sequence (P08183 whole entry): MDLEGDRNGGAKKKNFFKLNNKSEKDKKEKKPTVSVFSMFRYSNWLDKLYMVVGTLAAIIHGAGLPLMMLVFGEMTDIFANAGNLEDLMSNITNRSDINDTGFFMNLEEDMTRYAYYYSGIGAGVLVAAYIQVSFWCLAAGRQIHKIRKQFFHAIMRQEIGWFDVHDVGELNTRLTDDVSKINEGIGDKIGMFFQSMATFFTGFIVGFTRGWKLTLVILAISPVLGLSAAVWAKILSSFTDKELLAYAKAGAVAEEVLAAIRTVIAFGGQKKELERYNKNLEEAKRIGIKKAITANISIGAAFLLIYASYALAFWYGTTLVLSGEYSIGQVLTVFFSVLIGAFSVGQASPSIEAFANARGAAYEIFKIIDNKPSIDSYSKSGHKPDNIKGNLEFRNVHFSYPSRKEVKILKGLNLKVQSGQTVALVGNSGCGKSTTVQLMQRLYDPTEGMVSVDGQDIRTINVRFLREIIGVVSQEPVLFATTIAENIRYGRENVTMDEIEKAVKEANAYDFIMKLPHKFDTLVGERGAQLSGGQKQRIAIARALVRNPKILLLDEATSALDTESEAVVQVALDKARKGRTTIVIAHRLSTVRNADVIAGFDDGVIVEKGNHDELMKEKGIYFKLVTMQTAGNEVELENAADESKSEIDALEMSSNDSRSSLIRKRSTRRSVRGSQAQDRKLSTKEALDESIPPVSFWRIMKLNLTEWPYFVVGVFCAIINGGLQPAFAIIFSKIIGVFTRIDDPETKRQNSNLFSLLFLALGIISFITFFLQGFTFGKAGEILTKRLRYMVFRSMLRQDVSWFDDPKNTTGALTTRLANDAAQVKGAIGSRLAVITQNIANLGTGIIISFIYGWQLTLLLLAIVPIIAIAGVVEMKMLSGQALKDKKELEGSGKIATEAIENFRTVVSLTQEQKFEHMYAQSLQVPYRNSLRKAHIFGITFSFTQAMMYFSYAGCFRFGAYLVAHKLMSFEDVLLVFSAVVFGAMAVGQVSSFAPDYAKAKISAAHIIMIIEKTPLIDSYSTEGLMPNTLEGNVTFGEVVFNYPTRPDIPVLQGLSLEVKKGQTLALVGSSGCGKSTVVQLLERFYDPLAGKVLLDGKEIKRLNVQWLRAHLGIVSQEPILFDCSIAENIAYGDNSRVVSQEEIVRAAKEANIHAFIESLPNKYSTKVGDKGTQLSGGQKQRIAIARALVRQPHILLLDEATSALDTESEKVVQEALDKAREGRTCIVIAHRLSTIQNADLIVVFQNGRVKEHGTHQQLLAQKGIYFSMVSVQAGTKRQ
# Experiment Description: Inhibition of ABCB1 transfected in MDCK cells assessed as increase in calcein-AM accumulation
# Type: cell-based
Measured Quantity: IC50
Please answer using a numeric value trailed by its unit.

Below, each entry is followed by its recorded IC50 result.
• COc1cccc(CCc2ccccc2OCCCCN2CCN(c3ncccn3)CC2)c1 = 1170 nM
• COc1cccc(CCc2ccccc2OCCCCCN2CCc3cc(OC)c(OC)cc3C2)c1 = 110 nM

Now look at this one.
Entry "COc1cccc(CCc2ccccc2OCCCCN2CCN(c3cccc(C(F)(F)F)c3)CC2)c1" : reported IC50 = ? 1790 nM

###

# Study Target: ABCB1 (Homo sapiens)
# Sequence (P08183 whole entry): as the sequence (P08183 whole entry) above
# Experiment Description: Activation of ABCB1 in human Caco-2 cells assessed as ATPase activation at 100 uM after 2 hrs
Measured Quantity: activation at 2 h, 100 µM (%)
# number only, unit % dropped from output

* COc1cccc(CCc2ccccc2OCCCCCN2CCN(c3ccc(F)cc3)CC2)c1 | 40
* COc1cccc(CCc2ccccc2OCCN2CCN(c3ccccc3OC)CC2)c1 | 10

Now look at this one.
Entry "COc1cccc(CCc2ccccc2OCCCCN2CCN(c3ccccc3OC)CC2)c1" : reported activation at 2 h, 100 µM = ? 54

###

# Study Target: ATP-dependent translocase ABCB1 (Homo sapiens, UniProt P08183)
# Experiment Description: Inhibition of ABCB1 transfected in MDCK cells assessed as increase in calcein-AM accumulation
# Assay type: cell-based
pIC50: −log10 of the molar value.
We use 6 as the dividing line for pIC50: on or above the line is yes (1), below is no (0).

Illustrative cases are given below, each with its answer.
* COc1cccc(CCc2ccccc2OCCN2CCN(C)CC2)c1 | no (0)
* COc1cccc(CCc2ccccc2OCCCCN2CCN(C)CC2)c1 | no (0)
* COc1cccc(CCc2ccccc2OCCCCN2CCc3cc(OC)c(OC)cc3C2)c1 | yes (1)

Is reported pIC50 greater than or equal to 6 here: "COc1cccc(CCc2ccccc2OCCCN2CCc3cc(OC)c(OC)cc3C2)c1" yes (1)
